system: IL-23p19; assay: LPS induced IL23p19 in THP-1 cells (with IFNγ primed) assay; format: cell-based, Human; conditions: THP-1 cells, IFNγ primed, LPS 1 ug/mL, 18 hours, 10 pt; phosphate bis-ammonium salt; read-out: IL23-p19 ELISA, THP1-IFNy, LPS, 10 pt EC50
Where a name gives a salt, the structure may show the parent alone.
Attribute Measured: EC50 (nM)
Expressed in nM, but write only the number.

response.value for CCO[C@H]1C[C@@H](n2cc(NC(=O)c3csc(-c4cnn(COP(=O)(O)O)c4)n3)c(-c3ccccn3)n2)C1 [II-80, phosphate bis-ammonium salt] (field: EC50) = 49.5
